tested-target: UniProt:O43614
Sequence (O43614 whole entry): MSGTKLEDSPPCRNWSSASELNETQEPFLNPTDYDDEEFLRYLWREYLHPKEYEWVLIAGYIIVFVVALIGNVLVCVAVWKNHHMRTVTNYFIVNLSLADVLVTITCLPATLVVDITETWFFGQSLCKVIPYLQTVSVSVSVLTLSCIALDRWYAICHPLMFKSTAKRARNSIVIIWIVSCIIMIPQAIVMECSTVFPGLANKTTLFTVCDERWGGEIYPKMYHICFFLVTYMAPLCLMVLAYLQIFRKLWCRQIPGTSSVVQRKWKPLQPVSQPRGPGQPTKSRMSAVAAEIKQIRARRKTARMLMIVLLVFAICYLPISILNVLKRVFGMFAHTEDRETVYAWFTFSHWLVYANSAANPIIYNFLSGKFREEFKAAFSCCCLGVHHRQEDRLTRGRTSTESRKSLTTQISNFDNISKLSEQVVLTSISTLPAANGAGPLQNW
method-notes: Intracellular calcium measurements (FLIPR), orexin receptor antagonistic activity, OX2
setup-conditions: CHO cells expressing the human orexin-2 receptor; 10 nM orexin-A as agonist
pIC50: −log10 of the molar value.
measured-quantity: pIC50

See these solved cases before continuing.
molecule	measured-quantity	reported-result
Cc1nc(C(=O)N2CSC[C@H]2CNC(=O)c2c(C)nc3ccccn23)c(-c2ccc(F)cc2)s1	pIC50	6.09
O=C(NC[C@@H]1CSCN1C(=O)c1ccccc1-c1ccccc1)c1cccc2occc12	pIC50	8.05
Cc1nc(C(=O)N2CSC[C@H]2CNC(=O)c2c(C)nc3sccn23)c(-c2cccc(F)c2)s1	pIC50	8.15

[P] COC1Cc2c(C(=O)NC[C@@H]3CSCN3C(=O)c3nc(C)sc3-c3cccc(C)c3)ccc(Cl)c2O1 (some centres unmarked)
[Q] Cc1nc(C(=O)N2CSC[C@H]2CNC(=O)c2cc3ccccc3s2)c(-c2ccc(F)cc2)s1
Input pair: P , Q . Output: entry with lower pIC50. Answer with the label corresponding to your selection.
Q

* * *

tested-target: human orexin-1 receptor (Homo sapiens)
Sequence (O43613 1-425): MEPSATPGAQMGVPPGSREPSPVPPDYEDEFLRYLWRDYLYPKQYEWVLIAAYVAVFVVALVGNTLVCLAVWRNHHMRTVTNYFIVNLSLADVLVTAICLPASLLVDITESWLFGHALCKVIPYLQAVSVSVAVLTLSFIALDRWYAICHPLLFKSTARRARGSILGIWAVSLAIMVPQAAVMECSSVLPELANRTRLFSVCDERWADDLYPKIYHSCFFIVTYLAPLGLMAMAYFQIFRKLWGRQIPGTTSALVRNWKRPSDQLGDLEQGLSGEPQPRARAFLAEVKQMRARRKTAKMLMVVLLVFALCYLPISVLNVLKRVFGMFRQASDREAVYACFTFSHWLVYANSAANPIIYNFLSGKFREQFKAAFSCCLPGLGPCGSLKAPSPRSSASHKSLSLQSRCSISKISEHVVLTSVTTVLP
method-notes: Intracellular calcium measurements (FLIPR), orexin receptor antagonistic activity, OX1
setup-conditions: CHO cells expressing the human orexin-1 receptor; 10 nM orexin-A as agonist
measured-quantity: IC50 (nM)

[1] Cc1cccc(-c2sc(C)nc2C(=O)N2CSC[C@H]2CNC(=O)c2cccc3oc(CO)cc23)c1 [Example 147]
[2] Cc1nc(C(=O)N2CSC[C@H]2CNC(=O)c2cccc3c2NCCO3)c(-c2ccc(F)cc2)s1 [Example 112]
When 1 and 2 are compared, which has the higher number for IC50? Answer with the label corresponding to your selection.
1
